Value source: ChEMBL document CHEMBL5058577

System: HEK-293T
Assay: Multiplex assay against HEK293T
Format: toxicity, cell-based
Settings: human, 12 h, 1 µM, compound concentration 1 uM, replicate 2
Assay Metric: Population Hoechst High Intensity Objects (%)

{"Compound": "O=C(CCCc1ccccc1)Nc1nc2ccccc2c(=O)s1", "Measurement Target": "HEK-293T", "U": "%", "Test Value": 13}
{"Compound": "CCCCC1=NC2(CCCC2)C(=O)N1Cc1ccc(-c2ccccc2-c2nnn[nH]2)cc1 [IRBESARTAN]", "Measurement Target": "HEK-293T", "U": "%", "Test Value": 4}
{"Compound": "CN[C@@H](C)C(=O)N[C@H](C(=O)N1CCC[C@H]1C(=O)Nc1snnc1-c1ccccc1)C1CCCCC1 [GDC-0152]", "Measurement Target": "HEK-293T", "U": "%", "Test Value": 7}
{"Compound": "Br.CS(=O)(=O)Nc1c(O)ccc2c1CCCC2C1=NCCN1 (stereo not given)", "Measurement Target": "HEK-293T", "U": "%", "Test Value": 8}
{"Compound": "N#Cc1cc(F)cc(-c2nc(-c3ccc(F)cn3)no2)c1", "Measurement Target": "HEK-293T", "U": "%", "Test Value": 8}

###

System: U2OS
Test: Multiplex assay against U2OS
Assay type: toxicity, cell-based
Conditions: human, 24 h, 1 µM, compound concentration 1 uM, replicate 1

{"Compound": "CCCCCC(O)/C=C/[C@H]1C(=O)CC(O)C1C/C=C\\CCCC(=O)O (stereo partly drawn)", "Measurement Target": "U2OS", "Population Pyknosed Nuclei (%)": 8}
{"Compound": "Cc1cnc(-c2cc(N3CCN(C(=O)CCS(C)(=O)=O)CC3)ncc2Cl)c(C)c1", "Measurement Target": "U2OS", "Population Pyknosed Nuclei (%)": 6}
{"Compound": "COc1cccc2c1c(NS(=O)(=O)c1ccc(Cl)s1)nn2Cc1cccc(CNC(=O)C(C)(C)O)c1", "Measurement Target": "U2OS", "Population Pyknosed Nuclei (%)": 8}
{"Compound": "C[C@H](N)COC(=O)[C@@H](CCCCN)NC(=O)Cc1c(-c2ccc3ccccc3c2)[nH]c2c1ccc1ccccc12", "Measurement Target": "U2OS", "Population Pyknosed Nuclei (%)": 8}
{"Compound": "CN[C@@H](C)C(=O)N[C@H](C(=O)N1CCC[C@H]1C(=O)Nc1snnc1-c1ccccc1)C1CCCCC1", "Measurement Target": "U2OS", "Population Pyknosed Nuclei (%)": 23}
{"Compound": "CC(C)COc1ccc(CNC(=O)N(Cc2ccc(F)cc2)C2CCN(C)CC2)cc1", "Measurement Target": "U2OS", "Population Pyknosed Nuclei (%)": 9}
{"Compound": "CC(=O)Nc1cccc2c1c(Sc1ccc(Cl)cc1)c(C)n2CC(=O)O", "Measurement Target": "U2OS", "Population Pyknosed Nuclei (%)": 8}
{"Compound": "Cc1c(CC(=O)O)c2cccnc2n1Cc1ccc(S(C)(=O)=O)cc1C(F)(F)F", "Measurement Target": "U2OS", "Population Pyknosed Nuclei (%)": 8}

###

System: Fibroblast
Test: Multiplex assay against human fibroblast
Format: toxicity, cell-based
Settings: 24 h, 1 µM, compound concentration 1 uM, replicate 1
Assay Metric: Population Mitochondria Different-Phenotype (%)

{"Compound": "COc1ccccc1N1CCN(C[C@@H](C(=O)NC(C)(C)C)c2ccccc2)CC1.Cl.Cl", "Test Value": "15%"}
{"Compound": "CN(C)C(=O)Cn1cc(-c2ccc(-c3cncc4ccccc34)cc2)cn1", "Test Value": "3%"}
{"Compound": "CN[C@@H](C)C(=O)N[C@H](C(=O)N1CCC[C@H]1C(=O)Nc1snnc1-c1ccccc1)C1CCCCC1 [GDC-0152]", "Test Value": "1%"}
{"Compound": "O=C(NCCN1CCC(n2c(=O)[nH]c3cc(Cl)ccc32)CC1)c1ccc(F)cc1 [HALOPEMIDE]", "Test Value": "9%"}
{"Compound": "Cc1noc(-c2ccc(-c3ccc(CC(=O)O)cc3)cc2)c1NC(=O)O[C@H](C)c1ccccc1Cl", "Test Value": "1%"}
{"Compound": "O=C(CCCc1ccccc1)Nc1nc2ccccc2c(=O)s1", "Test Value": "5%"}
{"Compound": "Cl.NCCc1ccc(O)c(O)c1 [DOPAMINE HYDROCHLORIDE]", "Test Value": "1%"}
{"Compound": "CC(C)c1noc(N2CCC(COc3ccc(-c4ccc(S(C)(=O)=O)cc4)nc3)CC2)n1 [GSK-1292263]", "Test Value": "0%"}
{"Compound": "CC(=O)Nc1cccc2c1c(Sc1ccc(Cl)cc1)c(C)n2CC(=O)O [AZD1981]", "Test Value": "2%"}

###

Each item that follows carries a reported Population Healthy Nuclei (%).
Tested on: HEK-293T
Experiment: Multiplex assay against HEK293T
Type: toxicity, cell-based
Settings: human, 48 h, 10 µM, compound concentration 10 uM, replicate 1
Assay Metric: Population Healthy Nuclei (%)

{"Molecule": "CN(C)C(=O)Cn1cc(-c2ccc(-c3cncc4ccccc34)cc2)cn1", "U": "%", "Test Value": 63}
{"Molecule": "C[C@H](N)COC(=O)[C@@H](CCCCN)NC(=O)Cc1c(-c2ccc3ccccc3c2)[nH]c2c1ccc1ccccc12", "U": "%", "Test Value": 78}
{"Molecule": "COC[C@@H](c1ccc(C(F)(F)F)cc1)N1CCN(C2(C)CCN(C(=O)c3c(C)ncnc3C)CC2)C[C@@H]1C.O=C(O)/C=C\\C(=O)O [VICRIVIROC MALEATE]", "U": "%", "Test Value": 75}
{"Molecule": "CCCOc1ccc2[nH]cc(C3=CCNCC3)c2n1.Cl", "U": "%", "Test Value": 76}
{"Molecule": "CN[C@@H](C)C(=O)N[C@H](C(=O)N1CCC[C@H]1C(=O)Nc1snnc1-c1ccccc1)C1CCCCC1 [GDC-0152]", "U": "%", "Test Value": 73}
{"Molecule": "NCCc1cn(S(=O)(=O)c2c(Cl)nc3sccn23)c2ccccc12.O=C(O)C(=O)O", "U": "%", "Test Value": 24}
{"Molecule": "Cc1onc(-c2ccccc2Cl)c1C(=O)N(C)c1ccc(Cl)cc1", "U": "%", "Test Value": 76}
{"Molecule": "N#Cc1cc(F)cc(-c2nc(-c3ccc(F)cn3)no2)c1", "U": "%", "Test Value": 75}
{"Molecule": "CC(/C=C1\\SC(=S)N(CCCC(=O)Nc2ccc(C(=O)O)c(O)c2)C1=O)=C\\c1ccccc1", "U": "%", "Test Value": 79}
{"Molecule": "CCc1cc2cc(NS(=O)(=O)c3ccc(C#N)cc3)ccc2n(CC)c1=O", "U": "%", "Test Value": 78}
{"Molecule": "Cc1noc(-c2ccc(-c3ccc(CC(=O)O)cc3)cc2)c1NC(=O)O[C@H](C)c1ccccc1Cl", "U": "%", "Test Value": 79}
{"Molecule": "CCCCCC(O)/C=C/[C@H]1C(=O)CC(O)C1C/C=C\\CCCC(=O)O (stereo partly drawn)", "U": "%", "Test Value": 79}
{"Molecule": "CC(=O)Nc1cccc2c1c(Sc1ccc(Cl)cc1)c(C)n2CC(=O)O [AZD1981]", "U": "%", "Test Value": 78}
{"Molecule": "O=C1[C@H](Cc2ccc(O)cc2)N2C(=O)CCN(C(=O)NCc3ccccc3)[C@H]2CN1Cc1cccc2ccccc12", "U": "%", "Test Value": 79}
{"Molecule": "CC[C@@H](C)Nc1nc(C)nc2c(-c3ccc(OC)nc3C)c(C)nn12 [PEXACERFONT]", "U": "%", "Test Value": 77}
{"Molecule": "CC(C)COc1ccc(CNC(=O)N(Cc2ccc(F)cc2)C2CCN(C)CC2)cc1 [PIMAVANSERIN]", "U": "%", "Test Value": 30}
{"Molecule": "Cc1sc2c(c1C)C(c1ccc(Cl)cc1)=N[C@@H](CC(=O)NCCCCCCCCNC(=O)COc1cccc3c1C(=O)N(C1CCC(=O)NC1=O)C3=O)c1nnc(C)n1-2 (stereo partly drawn)", "U": "%", "Test Value": 55}
{"Molecule": "CC(C)(C)c1cc(NC(=O)Nc2ccc(-c3cn4c(n3)sc3cc(OCCN5CCOCC5)ccc34)cc2)no1 [QUIZARTINIB]", "U": "%", "Test Value": 77}
{"Molecule": "CC(C)c1noc(N2CCC(COc3ccc(-c4ccc(S(C)(=O)=O)cc4)nc3)CC2)n1 [GSK-1292263]", "U": "%", "Test Value": 79}
{"Molecule": "N#Cc1c(Oc2cccc(OS(=O)(=O)CCCC(F)(F)F)c2)cccc1C(F)(F)F", "U": "%", "Test Value": 78}
{"Molecule": "CCCCC(=O)N(Cc1ccc(-c2ccccc2-c2nnn[nH]2)cc1)[C@H](C(=O)O)C(C)C", "U": "%", "Test Value": 81}
{"Molecule": "Br.CS(=O)(=O)Nc1c(O)ccc2c1CCCC2C1=NCCN1 (stereo not drawn)", "U": "%", "Test Value": 76}
{"Molecule": "COc1ccccc1N1CCN(C[C@@H](C(=O)NC(C)(C)C)c2ccccc2)CC1.Cl.Cl", "U": "%", "Test Value": 72}
